- tgt: T1, native Ovr110 protein on tumor cells (ZR-75-1, SKBR3, RL95.2, OVCAR3) (human, UniProt Q7Z7D3 25-282)
- T1 construct: whole, on cells; Endogenous protein of Ovr110-positive tumor cell lines; also called B7-H4; B7x
- T1 sequence (looked up): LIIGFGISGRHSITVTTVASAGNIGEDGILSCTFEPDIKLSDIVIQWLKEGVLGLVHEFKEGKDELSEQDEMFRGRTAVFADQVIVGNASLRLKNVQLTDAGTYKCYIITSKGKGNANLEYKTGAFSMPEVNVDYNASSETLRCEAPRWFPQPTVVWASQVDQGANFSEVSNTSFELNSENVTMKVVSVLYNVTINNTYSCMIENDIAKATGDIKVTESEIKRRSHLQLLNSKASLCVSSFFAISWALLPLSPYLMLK
- protocol: flow cytometry; hybridoma supernatant; SKBR3 cells
Listed next: entries and their corresponding % Cells Positive.
The answer is to be given in %; state only the numeric part.

// below: answered binders
Ovr110.Q19 (antibody, IgG1, V domains shown, Mouse hybridoma MAb; also called Q19.6; Ovr110.Q19.6) VH: DVLLQESGPGLVKASQSLSLTCSVTGYSITSGYFWNWIRQFPGNKLEWMGYISYDGGNSYNPSLKNRISITRDTSKNQFFLRMKSVTAEDTATYYCARKALWLRFDYWGQGTTLTVSS VL: EIVLTQSPAIMSVYLGEKVTMTCSASLSVSYMHWYQQKSSTSPKLWIYDTSKVASGVPGRFSGSGSGNSYSLTISSMEAEDVATYYCFQGSGYPFTFGSGTKLEIKR: 98.9
Ovr110.Q23 (antibody, IgG1, V domains shown, Mouse hybridoma MAb; also called Q23.6) VH: QVQLQQSGAELMKPGASVKISCKATGYTFSSYWIEWVKQRPGHGLEWIGEILPGSGITKYNEKFKTKATFTADTSSNTAYMQLSSLTSEDSAVYYCARYYFGSVNFYFDCWGQGTTLTVSS VL: QAVVTQESALTTSPGETVTLTCRSSTGAVTTSNYANWVQEKPDHLFTGLIGGTDNRPPGVPARFSGSLIGDKAALTITGTQTEDEAIYFCALWYSNHWVFGGGTKLTVLG: 97.1
Ovr110.Q11 (antibody, V domains shown, Mouse hybridoma MAb; also called Q11.12.3; Ovr110.Q11.12.3) VH: DVQLQESGPGLVKPSQSLSLTCSVTGYSITSGYFWSWIRQFPGNKLEWMGFISYDGTNSYNPSLKNRISITRDTSKNQFFLRLNSVTKEDTATYYCARKLLWLRFDYWGQGTTLTVSS VL: ENVLTQSPAIMSASPGEKVTMTCSASSSVSYMHWYQQKSSTSPKLWIYDTSKLASGVPGRFSGSGSGNSYSLTISSMEAEDVATYYCFQGSGYPFTFGSGTKLEIKR: 98.7

Next binder, please.
For the binder shown here, Ovr110.Q12 (antibody, IgG1, V domains shown, Mouse hybridoma MAb; also called Q12.2; Ovr110.Q12.2) VH: QVQLQQPGAELVKPGATVKLSCKTSGYTFTSYWMHWVKQRPGQGLEWIGEIDPSDSYTNYNQKFKGKATLTVDTSSTTAYMQLSSLTSEDSAVYYCAREYGNNDAMDYWGQGTSVTVSS VL: QIVLTQSPAIMSASPGEKVTMTCSASSGISYMHWYQQKPGTTPKRWIYDASKLASGVPSRFSGSGSGTSYSLTISSMEAEDAATYYCHQRRSYPFTFGSGTKLEIKR , give the reported % Cells Positive.
98.8
